system: MDA-MB231 cells; assay: Cell viability, crystal violet colorimetric assay; assay type: cell-based; conditions: Exp.1; 72 hrs; tested at 0.02-0.1 mM; unstarred values
Could you please report measured pIC50 for the items listed next?
// pIC50: -log10(molar conc.)

Sample CCOP(=O)(OCC)C(CCC(=O)O)P(=O)(OCC)OCC [bpp(OEt), reference compound] — what was its pIC50?
3.98

Also, CCOP(=O)(OCC)C(CCC(=O)Oc1cc2c(c(C)c1C)OC(C)(CCCC(C)CCCC(C)CCCC(C)C)CC2)P(=O)(OCC)OCC (centres unmarked) [γ-toc-bpp(OEt), γ-tocopheryl bisphosphonic ester] please.
3.90

----------
system: MDA-MB231 cells; test: Cell viability, crystal violet colorimetric assay; type: cell-based; conditions: Exp.3; 72 hrs; * denotes EC50 value; read-out: EC50 value (starred) MB231
measurement-label: pEC50
API: returns pEC50 as number; meaning -log10 of concentration in mol/L.

Which pEC50 reading was recorded for the compound CCOP(=O)(OCC)C(CCC(=O)O)P(=O)(OCC)OCC [bpp(OEt), reference compound] ?
4.13

----------
test system: MDA-MB231 cells; test: Cell viability, crystal violet colorimetric assay; type: cell-based; settings: Exp.2; 72 hrs; tested at 0.02-0.1 mM
measurement-label: IC50 (µM)
API: value field is a number in µM; no unit string.

Please look up its IC50: CCOP(=O)(OCC)C(CCC(=O)Oc1cc2c(c(C)c1C)OC(C)(CCCC(C)CCCC(C)CCCC(C)C)CC2)P(=O)(OCC)OCC (stereo not drawn)
49.7

Input Cc1c(O)cc2c(c1C)O[C@](C)(CCC[C@H](C)CCC[C@H](C)CCCC(C)C)CC2 [γ-toc, γ-tocopherol, reference compound]
55.7

What do you get for CCOP(=O)(OCC)C(CCC(=O)O)P(=O)(OCC)OCC [bpp(OEt), reference compound] ?
242

----------
system: MCF-7 cells; test: Cell viability, crystal violet colorimetric assay; assay type: cell-based; conditions: Exp.4; 72 hrs; * denotes EC50 value; read-out: EC50 value (starred) MCF-7
measurement-label: EC50 (µM)
The reply should be a number in µM, with the unit left off.

Data request, read-out EC50, for CCOP(=O)(OCC)C(CCC(=O)O)P(=O)(OCC)OCC [bpp(OEt), reference compound]
1980

----------
test system: MCF-7 cells; assay: Cell viability, crystal violet colorimetric assay; assay type: cell-based; settings: Exp.3; 72 hrs; tested at 0.02-0.1 mM; unstarred values
measurement-label: pIC50
Scale: negative log10 of molar concentration, which is what pIC50 denotes.

I would be grateful if you could share the reported pIC50 for Cc1c(C)c2c(c(C)c1O)CC[C@@](C)(CCC[C@H](C)CCC[C@H](C)CCCC(C)C)O2 [α-toc, α-tocopherol, reference compound] .
4.26

----------
test system: MDA-MB231TXSA cells; experiment: Cell viability, crystal violet colorimetric assay; format: cell-based; conditions: Exp.4; 72 hrs; tested at 0.02-0.1 mM; read-out: IC50 values MB231-TXSA
I'd appreciate it if you could supply pIC50 values for the items below.
In plain terms, pIC50 is the concentration in mol/L turned into minus its base-10 logarithm.

Dear colleague, I am looking for the recorded pIC50 of the following compound: Cc1c(C)c2c(c(C)c1O)CC[C@@](C)(CCC[C@H](C)CCC[C@H](C)CCCC(C)C)O2 [α-toc, α-tocopherol, reference compound]
4.05

Please do the same for CCOP(=O)(OCC)C(CCC(=O)Oc1c(C)c(C)c2c(c1C)CCC(C)(CCCC(C)CCCC(C)CCCC(C)C)O2)P(=O)(OCC)OCC (stereo not drawn) [α-toc-bpp(OEt), α-Tocopheryl Bisphosphonic Ester] as well.
4.14

Also, CCOP(=O)(OCC)C(CCC(=O)O)P(=O)(OCC)OCC [bpp(OEt), reference compound] please.
3.75
